Measurement Notes: amyloid nucleation score (Sup35N fusion, yeast selection) (log enrichment); library NNK1; higher = more nucleation; inactive = no reads after selection;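 note: zero at mode of non-aggregating sequences after 7 days selection at 30°C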
Tag: YES if measured amyloid nucleation score is not below 0.5, NO if it is.

Previously resolved entries follow.
• VIGCAGSDLNLRSILCFILC = NO
• LWCVLHDVGGGSYSLDRYTG = NO
• SACNLPACRSNKLAGRGRVM = NO
• EELTAYMSLDMQLCRNRAAM = NO
• KHSGFQTCVNYLD = NO

Lookup: Kindly determine if amyloid nucleation score recorded for RLCPENLRTNFKCVLNFMVT is above or exactly 0.5.
Found: YES

Lookup: Kindly determine if amyloid nucleation score recorded for QVSTNLVWDL is above or exactly 0.5.
Found: YES

Lookup: Kindly determine if amyloid nucleation score recorded for IIFKSVNYLLPIVVKNMCGT is above or exactly 0.5.
Found: YES

Lookup: Kindly determine if amyloid nucleation score recorded for CSAASVCPGD is above or exactly 0.5.
Found: NO

Lookup: Kindly determine if amyloid nucleation score recorded for FWVQNMVGNFFNYYFDRGNQ is above or exactly 0.5.
Found: YES

Lookup: Kindly determine if amyloid nucleation score recorded for VDDICIIVANSAGRDEQMSM is above or exactly 0.5.
Found: YES

Lookup: Kindly determine if amyloid nucleation score recorded for QKRAMYDLGCSFSLFNLCYQ is above or exactly 0.5.
Found: YES

Lookup: Kindly determine if amyloid nucleation score recorded for STVRSAPFSWLPGKYGWSKC is above or exactly 0.5.
Found: NO

Lookup: Kindly determine if amyloid nucleation score recorded for RFRFMLVFSNLSLL is above or exactly 0.5.
Found: NO

Lookup: Kindly determine if amyloid nucleation score recorded for CNCAKSNVRCLFLFFDGQTR is above or exactly 0.5.
Found: YES

Lookup: Kindly determine if amyloid nucleation score recorded for QRSLLDDRYNAICSSNTNVE is above or exactly 0.5.
Found: NO

Lookup: Kindly determine if amyloid nucleation score recorded for ARYHYWGGERASSLNKVSQW is above or exactly 0.5.
Found: YES

Lookup: Kindly determine if amyloid nucleation score recorded for VQLRLMDRNREHYGYEESTR is above or exactly 0.5.
Found: NO

Lookup: Kindly determine if amyloid nucleation score recorded for STDSCVALSMATWF is above or exactly 0.5.
Found: NO

Lookup: Kindly determine if amyloid nucleation score recorded for VWRADMCSHS is above or exactly 0.5.
Found: NO

Lookup: Kindly determine if amyloid nucleation score recorded for YYCLKPRGQSIGYGGNCLKA is above or exactly 0.5.
Found: NO

Lookup: Kindly determine if amyloid nucleation score recorded for VFKSVFY is above or exactly 0.5.
Found: YES

Lookup: Kindly determine if amyloid nucleation score recorded for VRLMSTAMLRRLELVLYST is above or exactly 0.5.
Found: YES

Lookup: Kindly determine if amyloid nucleation score recorded for PLFVVRIDEISSDSIRGAGH is above or exactly 0.5.
Found: YES

---

Measurement Notes: amyloid nucleation score (Sup35N fusion, yeast selection) (log enrichment); library NNK1; higher = more nucleation; inactive = no reads after selection
Readout Label: amyloid nucleation score

Reference set (6 entries):
* YSYSEGSLYQCSVSVV | 0.601
* FMIVKFLIL | 1.5
* IFKGGFTWYCCDKARGLKGR | 0.411
* SFGNVILSGIIRTTVLDRGV | -0.381
* VIMQFFILCPHSVCISSENH | 7.5
* LCELNSKAVYGSKMAHCYSS | -0.151

Need amyloid nucleation score for each of these substances.
1. WLNHKRIVINTQLMLYSPGC
2. TRNMHKCCNTMTTLLSVLGS
3. QLAERTGVHCSQFTKWFFKM
4. EYWGRGEVRADMWRRWIGW

Found:
[4.68, -0.186, 1.72, 1.23]

Need amyloid nucleation score for each of these substances.
1. LHTMCGK
2. DRFLCGWSLPSC
3. GTDYIKVSASPRSFMYDSSV

Found:
1. 0.03
2. -0.656
3. 1.88

Need amyloid nucleation score for each of these substances.
1. QFPERWDPFLPMSRASRYYH
2. YIIYWGAQLSILHENSPSFG
3. GNLFITACFHAFVIWFHNGN
4. YGFVAYSDIVKAFGVIKSTG
5. RCYHWVDLVCVRVGTRACFL
6. WEVRGHPSGLMEVRDLGVRF
7. RRENIP
8. KNWARIMRNRNYSVSAILW

Found:
[0.865, 0.354, "inactive", -0.315, 0.877, 0.249, 0.01, 0.163]

Origin of measurements: the supplement of paper PMC12042874
